- METHOD_DESCRIPTION: NCI Yeast Anticancer Drug Screen. Data for the mec2-1 strain (AID 157)
- PROTOCOL_CONDITIONS: S. cerevisiae mec2-1 strain, at 5.0 µM (retest, dose inferred, filed as 0.5)
This is part of a sample that, as a whole, favours compounds with a hit. Of some 79,000 tested, about 15% had one in any assay. Calls of active or inactive are those of the source. Rule as the data show it: active = growth inhibition above about 70%; inactive = the rest.
Classes used: active, inactive

                                   compound  assigned_category
0  COP(=O)(OC)/C(=C/c1cn(C(c2ccccc2)(c2ccccc2)c2ccccc2)cn1)NC=O           inactive
1  COC(=O)C1(Cc2ccc3c(c2)CCC3)Cc2ccccc2C1O (stereo not given)           inactive
2  CCOC(=O)C(=C=C=C(c1ccccc1)c1ccccc1)C(=O)OCC           inactive
3  c1cc[c]([Sn]([S]c2cccc3cccnc23)([c]2ccccc2)[c]2ccccc2)cc1             active
4  O=C1OS(=O)(=O)c2cc3c(cc21)C1C(C2C3C3(Cl)C(Cl)=C(Cl)C2(Cl)C3(Cl)Cl)C2(Cl)C(Cl)=C(Cl)C1(Cl)C2(Cl)Cl (stereo not given)           inactive
5         CC1=C(C)CC(C#N)(C#N)C(C#N)(C#N)C1           inactive
6  CCCNCCCC(C)Nc1cc(OC)cc2c(C)ccnc12 (stereo not given)           inactive
7             CCOc1ccccc1/C=C1\C=Nc2ccccc21           inactive
8  CCOC(=O)c1nnc2cc(-c3ccccc3)nn2c1-c1ccccc1           inactive
9  COc1ccc(CN2CCCN(Cc3ccc(OC)cc3OC)C2c2cc(Cl)ccc2O)c(OC)c1           inactive

###

- METHOD_DESCRIPTION: NCI Yeast Anticancer Drug Screen. Data for the bub3 strain (AID 167)
- PROTOCOL_CONDITIONS: S. cerevisiae bub3 mutant strain, at 50.0 µM, hits give high values
This is part of a sample that, as a whole, favours compounds with a hit. Of some 79,000 tested, about 15% had one in any assay.
READOUT_TYPE: growth inhibition (%)

                                   compound  observed_value
0  Cc1cc(C2C(O)C(c3cc(C)on3)C2(C)O)no1 (stereo not drawn)             8.1
1           Cc1[nH]nc(C(=O)N(C)C)c1N=NN(C)C            79.2
2  C1=c2ccccc2=C2C(=C(c3ccccc3)C(c3ccccc3)=NN2c2ccccc2)S1           -5.35

###

- METHOD_DESCRIPTION: NCI Yeast Anticancer Drug Screen. Data for the rad50 strain (AID 155);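 also: 0% = growth of vehicle-only cultures of the same strain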
- PROTOCOL_CONDITIONS: S. cerevisiae rad50 strain growth inhibition; at 5.0 µM (retest, dose inferred, filed as 0.5)
The panel holds about 79,000 compounds, 15% with a hit somewhere; the sample as a whole holds those more often. The source made the active and inactive calls. Cut-off read from the data, not from the text of the source: active = growth inhibition above about 70%; inactive = the rest.
Possible outcomes: active, inactive

>>> print(df.to_string())
                                    molecule  assigned_category
 0  Cc1coc(C)c1C(=S)Nc1ccc(Cl)c(C(=O)OC(C)C)c1           inactive
 1  COC12C(COC(N)=O)C3=C(C(=O)C(C)=C(N)C3=O)N1CC1C2N1C(=O)/C=C/c1ccccc1 (stereo not given)           inactive
 2                    CCCNCC/C=C/[Si](C)(C)C           inactive
 3  O=C(SCCCc1ccccc1)c1cc([N+](=O)[O-])cc([N+](=O)[O-])c1             active
 4     CCCC(C)c1ccc(O)cc1 (stereo not given)           inactive
 5  CCOC(=O)C(C#N)NC(C)=O (stereo not given)           inactive
 6  CC(C)C1=C2CCC3(C)C(CCC4C5C6OCC5(CCC6(C)C)CCC43C)C2(C)CC1 (stereo not given)           inactive
 7  O=C(NC1(OC(=O)c2ccc(Cl)cc2)CC1)c1ccc(Cl)cc1           inactive
 8  Nc1ccc(-c2ccc(N)cc2S(=O)(=O)O)c(S(=O)(=O)O)c1           inactive
 9  OCC1OC(NC(=S)NCSCCC(F)(F)C(F)(F)C(F)(F)C(F)(F)C(F)(F)C(F)(F)F)C(O)C(O)C1O (stereo not given)           inactive
10  ONC1=Nc2ccccc2OCc2cc(Br)c(Br)cc2COc2ccccc2N=C1NO           inactive
11           Cc1cccc(NC(=O)CCc2ccc(Cl)cc2)n1           inactive
12  [C](#[C][Sn]([c]1ccccc1)([c]1ccccc1)[c]1ccccc1)[Sn]([c]1ccccc1)([c]1ccccc1)[c]1ccccc1             active
13                ClC1(Cl)c2ccccc2-c2ccccc21           inactive
14  CC(=O)OC1=CC2=CCC3C(CCC4(C)C(C(C)=O)CCC34)C2(C)CC1 (stereo not given)           inactive
15                          CCCCCOC(=O)CSC#N             active
16  COc1ccccc1OCC(COC(=O)Nc1ccc(C)cc1)OC(=O)Nc1ccc(C)cc1 (stereo not given)           inactive
17       CCc1c(C)[nH]c2c([N+](=O)[O-])cccc12           inactive
18          CCOc1nc(N)nc(C)c1N=Nc1ccc(Cl)cc1           inactive
19  O=C1c2cccc3cc([N+](=O)[O-])cc(c23)C(=O)N1O           inactive
20      CN1C(=O)c2ccccc2C1(c1ccccc1)c1ccccc1           inactive
21  O=C1C=CC(=O)C2C3C=CC(CC3)C12 (stereo not given)           inactive
22  O=C(c1ccc(Br)cc1)C1N=NCC1c1ccccc1 (stereo not given)           inactive
23                  Nc1ccc(-c2ccc(Cl)cc2)cc1           inactive
24      O=[N+]([O-])c1ccc(N/N=C/c2cccnc2)cc1           inactive
25  O=[N+]([O-])C1CCC(C2=CSC3CCCCC3N2)CC1 (stereo not given)           inactive
26                    CCCCCN=C(C)C(C)=NCCCCC           inactive
27         C/C(=N\NC(=S)N1CCC(O)CC1)c1ccccn1           inactive
28  Oc1ccc2c(c1)OCC1c3ccccc3OC21 (stereo not given)           inactive
29    COc1ccc(C(=O)C(CN2CCOCC2)CN2CCOCC2)cc1           inactive

###

- METHOD_DESCRIPTION: NCI Yeast Anticancer Drug Screen. Data for the sgs1 mgt1 strain (AID 161);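 also: 0% = growth of cultures given vehicle only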
- PROTOCOL_CONDITIONS: S. cerevisiae sgs1 mgt1 strain, at 50.0 µM (retest, dose inferred, filed as 5.0)
Compounds without any hit were thinned out: in the full panel of roughly 79,000, 15% have a hit. Active and inactive are the calls of the source. Cut-off read from the data, not from the text of the source: active = growth inhibition above about 70%; inactive = the rest.
Labels: active, inactive

In [3]: df
Out[3]:
                                    molecule  assigned_category
 0  [Cl][Sn]1([Cl])[CH2]CC[CH2][Sn]([Cl])([Cl])[CH2]CC[CH2][Sn]([Cl])([Cl])[CH2]CC[CH2][Sn]([Cl])([Cl])[CH2]CC[CH2]1           inactive
 1  CC(C)c1ccc(O)c(O)c(=O)c1 (tested in a mixture with another compound)             active
 2  CC(C)(C)c1ccc(-c2nnc(SCc3ccc(Cl)cc3)n2-c2cccc(C(F)(F)F)c2)cc1           inactive
 3                       Cc1ccnc(NCCN(C)C)c1           inactive
 4             O=c1ccnc(Nc2ccc[nH]c2=S)[nH]1           inactive
 5          CN(C)CCCC(C#N)(CCCN(C)C)c1ccccc1           inactive
 6       COc1ccc(OC)c(/C=C/c2ccnc3ccccc23)c1             active
 7            O=C(CSc1nccc(=O)[nH]1)c1ccccc1           inactive
 8  COc1cc(C2c3cc4c(cc3OC3(O)C=C(C)OC(=O)C23)OCO4)cc(OC)c1OC (stereo unspecified)           inactive
 9  COc1nc(NC2OCC(O)C(O)C2O)c(Cl)c(=O)n1C (stereo unspecified)           inactive
10                       CN(C)c1ncnc2c1ncn2C           inactive

From: PubChem BioAssay (NCI)
